The measured values listed here are drawn from PubChem BioAssay.

Here the recorded z-score is given for each entry.
# protocol-details: JC-1 mitochondrial signal, unstimulated adipocytes – cell-based, JC-1 fluorescence, 3T3-L1 adipocytes, 24 h, 100 nL compound, profiling panel (AID 1168); also: test concentration not given here
# condition-context: JC-1 mitochondrial fluorescence, higher = more signal, called active from +8 up or from −8 down
Activity calls are given as the source filed them.

Known results for compounds:
{"compound": "O=C1[C@H]2C=C(Br)[C@H](C[C@@H]2OCCCCCCO)[C@@]12CO2", "reported-property": "z-score", "value-measured": "-0.253 (inactive)"}
{"compound": "CC(c1ccccc1)C(O)C1C=CC2C(=O)N(C)C(=O)C2N1NC(=O)OC(C)(C)C (stereo not drawn)", "reported-property": "z-score", "value-measured": "-0.439 (inactive)"}
{"compound": "C[N+](C)(C)CCCC[C@@H]1NC(=O)[C@H]2C[C@@H](C(=O)NCCCCCCNC(=O)CS)[C@@H](c3ccc(O)cc3)N2C1=O", "reported-property": "z-score", "value-measured": "-0.564 (inactive)"}
{"compound": "NCCCCCNC(=O)[C@H]1C[C@H]2C(=O)N3CCC[C@H]3C(=O)N2[C@H]1c1ccc(O)cc1", "reported-property": "z-score", "value-measured": "0.0417 (inactive)"}
{"compound": "CCCCCCCCCCC(O)C1C=CC2C(=O)NC(=O)C2N1Nc1ccc(Cl)cc1Cl (stereo not drawn)", "reported-property": "z-score", "value-measured": "-0.354 (inactive)"}

Per the record, C=C(/C(=C/C[C@H](OC(=O)c1ccncc1)c1ccc(OCCO)cc1)c1cc(C(=O)OC)ccc1OC)C(C)C has z-score of 0.111 (inactive)

Per the record, COc1cc(OC)c(C(O)C2C=CC3C(=O)NC(=O)C3N2Nc2ccccn2)cc1Br (stereo not drawn) has z-score of 0.0212 (inactive)

Per the record, C#CCOc1ccc(C[C@@H](C(=O)OC)N(CC#C)[C@@H](/C=C/C2CC2)[C@H](O)Cc2ccccc2)cc1 has z-score of -0.00867 (inactive)

---

Here the recorded z-score is given for each entry.
# protocol-details: resazurin metabolic signal in A549 cells – cell-based, resazurin fluorescence, 24 h, PK04 Diversity Set, profiling panel (AID 1171); also: test concentration not given here
# condition-context: A549 viability, higher = more signal, called active from +8 up or from −8 down
Response field accepts a number only; no unit should be typed.

Known results for molecules:
{"molecule": "C=C(C)[C@@H]1CC=C(C(O)C2C=CC3C(=O)NC(=O)C3N2Nc2ccc(Cl)cc2Cl)CC1 (stereo partly drawn)", "z-score": -2.76}
{"molecule": "O=C1C2C=CC(C(O)c3ccc(F)cc3)N(Nc3ccc([N+](=O)[O-])cc3)C2C(=O)N1c1ccccc1 (stereo not drawn)", "z-score": 0.68}
{"molecule": "COC(=O)C(CC#Cc1ccc2c(c1)[C@]1(C(=O)N2)[C@H](c2ccc(O)cc2)N2[C@H](c3ccccc3)[C@H](c3ccccc3)OC(=O)[C@H]2[C@@H]1C(=O)N1CCN(c2ncccn2)CC1)C(=O)OC", "z-score": -0.558}
{"molecule": "CCCC[C@@H]1C[C@H]1[C@@H](NC(=O)c1cccnc1)c1ccc(Cl)cc1", "z-score": 1.56}
{"molecule": "Cc1ccc(S[C@]2(C(=O)NCC(C)C)CC(=O)N(Cc3cc(C(F)(F)F)cc(C(F)(F)F)c3)[C@@H]2c2ccc(CO)cc2)cc1", "z-score": -0.0187}

Per the record, N#Cc1ccc(C(O)C2C=CC3C(=O)N(c4ccccc4)C(=O)C3N2Nc2ccccc2F)cc1 (stereo not drawn) has z-score of 0.0801

Per the record, COCCOC(=O)N1C(=O)[C@@]2(c3cc(C#CC4(O)CCCCCC4)ccc31)[C@H](C(=O)Nc1nc3ccccc3s1)[C@H]1C(=O)O[C@H](c3ccccc3)[C@H](c3ccccc3)N1[C@@H]2c1ccc(OCCO)cc1 has z-score of 0.566

Per the record, COCCOC(=O)N1C(=O)[C@@]2(c3ccccc31)[C@H](c1ccc(OCCO)cc1)N1[C@H](c3ccccc3)[C@H](c3ccccc3)OC(=O)[C@H]1[C@@H]2C(=O)N1CCc2cc(OC)c(OC)cc2C1 has z-score of -0.247

Per the record, NCCCCCNC(=O)[C@H]1C[C@H]2C(=O)N3CCC[C@H]3C(=O)N2[C@H]1c1ccc(O)cc1 has z-score of -0.166

Per the record, O=C1O[C@@H](c2ccccc2)[C@@H](c2ccccc2)N2[C@@H](c3ccccc3OCCO)[C@]3(C(=O)Nc4ccc(C#CC5(O)CCCCCC5)cc43)[C@@H](C(=O)N3CCN(c4ncccn4)CC3)[C@H]12 has z-score of -0.697

Per the record, COC(=O)[C@@]1(Cc2ccccc2)[C@H]2c3cc(C(=O)N4CCCC4)n(Cc4c(CO)[nH]cc(C)c4=O)c3C[C@H]2CN1C(=O)c1ccccc1 has z-score of 0.739

Per the record, COC(=O)[C@]1(Cc2ccccc2)N=C(c2ccc(OCCCO)cc2)O[C@@H]1c1ccccc1N=[N+]=[N-] has z-score of -2.87

Per the record, CCOC(=O)C[C@H]1[C@H](OC(=O)c2cc3ccccc3oc2=O)[C@@H](NC(=O)CC(C)C)c2cc(OCCCO)ccc2N1C(=O)c1ccccc1 has z-score of -1.33
